- Test system: HCT-116
- PROCEDURE_TEXT: NCI tumour cell line growth inhibition, 48 h
Activity calls are given as the source filed them. Rule as the data show it: active = GI50 up to about 1.1 µM and inactive = higher.
I would appreciate it if you answered using one of these outcomes: 1 (active), 0 (inactive)

Previously resolved entries follow.
>>> class_label("C[C@]12OC[C@H](c3ccccc3)N1C(=O)C1[C@H]2CC12SCCS2 (stereo not given in full)")
0
>>> class_label("Cc1cc(C)nc(NS(=O)(=O)c2ccc(Nc3c4ccccc4nc4c(C(=O)NCCN(C)C)cccc34)cc2)n1")
0
>>> class_label("Cc1ccc([N+](=O)[O-])cc1NC(=O)/C(CC(=O)c1sc(C(N)=S)nc1C)=N\\N")
0
>>> class_label("Clc1ccc(C2C3COc4ccccc4C3=NN2c2ccccc2)cc1 (stereo not given)")
0
>>> class_label("COC(=O)C1=Nc2c(C)nn(-c3ccccc3)c2N=C(c2ccccc2)C1")
0
>>> class_label("O=C(CC1(O)C(=O)Nc2c(Cl)ccc(Cl)c21)c1ccc(Cl)cc1 (stereo not given)")
0
>>> class_label("c1ccc2c(c1)Cc1c(Cc3csc4ccccc34)ccc3cccc-2c13")
0
>>> class_label("CCCC(CCN)(CCN)[N+](=O)[O-]")
0

Dear colleague, could you share the recorded outcome for O=C1C2CC(Cl)C(SSC3CC4C(=O)N(SC(Cl)(Cl)C(Cl)Cl)C(=O)C4CC3Cl)CC2C(=O)N1SC(Cl)(Cl)C(Cl)Cl (stereo not given) when you have a moment?
0

Fill in: this test's call for CN(C)CCNc1nc2ccccc2c2c1C(=O)c1ccccc1-2 is ___
1

Returns: the outcome recorded for C[n+]1ccc(Nc2ccc(NC(=O)c3ccc(Nc4cc[n+](C)c5ccc([N+](=O)[O-])cc45)cc3[N+](=O)[O-])cc2)cc1 in this assay.
0

Query: recorded result category for Cc1ccc(C2=Nc3ccccc3[S+]([O-])C(c3ccc4c(c3)OCO4)C2)cc1 (stereo not given) in this test
0

State the result this test recorded for COc1ccc(C(=O)/C=C/c2ccc(O)c(O)c2)c(OC)c1 .
1

* * *

I'd appreciate it if you could supply GI50 values for the items below.
- Tested on: SNB-19
- PROCEDURE_TEXT: NCI tumour cell line growth inhibition, 48 h
Activity calls are given as the source filed them. Cut-off read from the data, not from the text of the source: active = GI50 up to about 1.1 µM and inactive = higher. *1 amine or outer side, *2 acyl side, *3 side chain or, on linkers, in order; H or OH if unused. Where a SMILES comes first, the peptide text is derived from it. [ ]: non-standard residue; d: D form. The star is where a group is joined. ξ: configuration not given here. X53 = CC(C)C[C@H](N[*:1])C1=N[C@H](C(=O)[*:2])CS1; Ile(3ξ) = CCC(C)[C@H](N)C(=O)O; Allyl(1,1-Me2) = C=CC(C)(C)*

Record excerpt, results attached:
>>> recorded_result("COC1CC(n2cc(F)c(N)nc2=O)OC1CO (stereo not given)")
"> 100 µM (inactive)"
>>> recorded_result("CS(=O)(=O)Oc1cccc(/C=N/N=C(\\N)NO)c1")
"64.9 µM (inactive)"
>>> recorded_result("CN(C)c1ccc(/C=c2/c3ccccc3n3c2cc(NC(=O)NCCC[N+](C)(C)C)[n+]3C)cc1")
"64.1 µM (inactive)"
>>> recorded_result("C=C1CC(Cn2cc(Br)c(=O)[nH]c2=O)(c2ccc(Br)cc2)OC1=O (stereo not given)")
"15.8 µM (inactive)"
>>> recorded_result("CC(C)(C)OC(=O)NC(Cc1ccc(OC(C)(C)C)cc1)C(=O)N[C@H]1CCC[C@H]1C(=O)NC(Cc1ccccc1)C(=O)N1CCCC1C(N)=O (stereo not given in full)")
"> 100 µM (inactive)"

// for each compound below, give its GI50
1. Cc1ccc(S(=O)(=O)NNC(=S)Nc2cccc3ccccc23)cc1
2. C=CC(C)(C)OC[C@@H]1NC(=O)CNC(=O)[C@@H]2CCCN2C(=O)[C@H](C(C)CC)NC(=O)[C@@H]2CSC(=N2)[C@H](CC(C)C)NC1=O (stereo not given in full) (cyclo(GS(Allyl(1,1-Me2))[X53][Ile(3ξ)]P))
3. C[n+]1ccc(Nc2ccc(NC(=O)c3ccc(Nc4cc[n+](C)c5ccc([N+](=O)[O-])cc45)cc3[N+](=O)[O-])cc2)cc1
4. COc1cc(C(c2c(O)c3ccccc3oc2=O)c2c(O)c3ccccc3oc2=O)cc(Br)c1O
5. CC(=O)c1c(-c2ccccc2)c(-c2ccc(OCCN(C)C)cc2)n2ccccc12
6. Clc1ccc(/C=N/c2ccc3c(c2)Cc2ccccc2-3)c(Cl)c1

1. 68.1 µM (inactive)
2. > 100 µM (inactive)
3. > 59.2 µM (inactive)
4. 18.6 µM (inactive)
5. 19.3 µM (inactive)
6. > 100 µM (inactive)

Batch request: GI50 for each of the following compounds.
1. C=CC(C)(C)C(=C)C(=O)Nc1ccccc1I
2. CCCc1n[nH]c(CCC(=O)N(Cc2ccccc2)Cc2ccccc2)c1CC

1: > 100 µM (inactive); 2: > 100 µM (inactive)

Please give GI50, item by item, for the list that follows.
1. Cc1cc(O)nc(NN2C(Cl)C(=O)C2c2cccc(Cl)c2)n1 (stereo not given)
2. O=C1/C(=C/c2ccc(O)cc2)CCc2ccccc21
3. CC(C)c1ccccc1NC(=O)CCc1n[nH]c(=S)o1
4. Clc1nc(-[n+]2ccc(-c3ccncc3)cc2)nc(Nc2ccccc2)c1Cl

["27.9 µM (inactive)", "22.4 µM (inactive)", "> 100 µM (inactive)", "> 100 µM (inactive)"]

// each compound listed below needs its GI50
1. CN(CC(=O)O)CC(=O)O
2. COc1cc(C(=O)N(C(=S)OCc2ccccn2)c2ccccc2)cc(OC)c1OC

> 100 µM (inactive)
> 100 µM (inactive)

Which GI50 value belongs to N=C(N)SCCSC(=N)N ?
> 100 µM (inactive)

* * *

- System: IGROV-1
- PROCEDURE_TEXT: NCI tumour cell line growth inhibition, 48 h
Activity calls are given as the source filed them. Rule as the data show it: active = GI50 up to about 1.1 µM and inactive = higher. *1 amine or outer side, *2 acyl side, *3 side chain or, on linkers, in order; H or OH if unused. Where a SMILES comes first, the peptide text is derived from it. [ ]: non-standard residue; d: D form. The star is where a group is joined. ξ: configuration not given here. X53 = CC(C)C[C@H](N[*:1])C1=N[C@H](C(=O)[*:2])CS1; Ile(3ξ) = CCC(C)[C@H](N)C(=O)O; Allyl(1,1-Me2) = C=CC(C)(C)*
OBSERVABLE: GI50

>>> recorded_result("COc1cc(/C=C/c2nc(NC(=S)Nc3ccccc3)nnc2C)cc(OC)c1OC")
"27.2 µM (inactive)"
>>> recorded_result("CCN(C(=S)N[C@H](C(=O)N[C@@H](C)C(=O)OC)C(C)C)c1ccccc1")
"25.8 µM (inactive)"

I need GI50 for every entry listed below, if you could help.
1. C=C1CC(Cn2cc(Br)c(=O)[nH]c2=O)(c2ccc(Br)cc2)OC1=O (stereo not drawn)
2. C=CC(C)(C)OC[C@@H]1NC(=O)CNC(=O)[C@@H]2CCCN2C(=O)[C@H](C(C)CC)NC(=O)[C@@H]2CSC(=N2)[C@H](CC(C)C)NC1=O (stereo partly drawn) (cyclo(GS(Allyl(1,1-Me2))[X53][Ile(3ξ)]P))
3. NC1CC(=O)c2c(I)sc(I)c21 (stereo not drawn)
4. Cc1ccccc1/N=N/c1ccc(/N=N/c2c(O)ccc3cc(S(=O)(=O)O)cc(S(=O)(=O)O)c23)c(C)c1
5. Cc1cc(C)nc(NS(=O)(=O)c2ccc(Nc3c4ccccc4nc4c(C(=O)NCCN(C)C)cccc34)cc2)n1
6. CCOc1c(OC)cc(-c2nc3n(n2)C(=O)C(CC)S3)cc1OC (stereo not drawn)
7. O=c1cc(NNc2ccccc2)[nH]c(=S)[nH]1
8. Nc1nc2cc3nc(N)c(N)nc3cc2nc1N

1: 1.89 µM (inactive); 2: 59 µM (inactive); 3: 15.2 µM (inactive); 4: > 100 µM (inactive); 5: 2.83 µM (inactive); 6: > 10 µM (inactive); 7: 79.4 µM (inactive); 8: > 100 µM (inactive)

// for each molecule below, give its GI50
1. CC(C)(C)c1ccc2c(c1)OP1(Oc3c(Cl)cc(Cl)c4cccnc34)(O2)Oc2ccc(C(C)(C)C)cc2O1
2. CC(C)=CC(=O)c1[nH]c2ccccc2c1CC(=O)NCCc1cn(C(c2ccccc2)(c2ccccc2)c2ccccc2)cn1
3. O=C(CCCCCCCCC(=O)OCC1OC(n2cnc3c(=O)[nH]cnc32)C(O)C1O)OCC1OC(n2cnc3c(=O)[nH]cnc32)C(O)C1O (stereo not drawn)

["8.55 µM (inactive)", "3.84 µM (inactive)", "> 100 µM (inactive)"]

Give measured GI50 for every item shown.
1. O=[N+]([O-])C(=C1c2ccccc2-c2ccccc21)[N+](=O)[O-]
2. C/C(CC(=O)NC1=CC=C(NC(=O)C/C(C)=N\Nc2ccccc2)CC1)=N/Nc1ccccc1
3. N#CC(c1ccccc1)N1CCCN(C(C#N)c2ccccc2)C1c1ccccc1O (stereo not drawn)
4. CNC(=O)C1(C#N)C(c2ccccc2)C(C#N)(C(=O)NC)C1c1ccccc1 (stereo not drawn)
5. CCC1C(C(=O)Nc2ccccc2C)=C(C)NC(C)=C1c1ccccc1C (stereo not drawn)

1. 61.5 µM (inactive)
2. > 100 µM (inactive)
3. > 100 µM (inactive)
4. > 100 µM (inactive)
5. > 100 µM (inactive)
